tested on: MCF‐7 cells; assay: Phototoxicity, 470 nm LED, alamar blue assay; format: cell-based; conditions: 17 J/cm^2, 470 nm LED
This listing pairs molecules with measured Photo Index (PI), ratio of dark IC50 to light IC50.

| STRUCTURE_SMILES_STRING | OBSERVED |
| --- | --- |
| CC1=C(I)C(C)=[N+]2C1=C(c1ccccc1)c1c(C)c(-c3ccc4c5cccc6cccc(c7cccc3c74)c65)c(C)n1[B-]2(F)F | > 213 |
| CC1=CC(C)=[N+]2C1=C(c1ccccc1)c1c(C)c(-c3ccc4c5cccc6cccc(c7cccc3c74)c65)c(C)n1[B-]2(F)F | > 182 |
| CC1=C(c2ccc3c4cccc5cccc(c6cccc2c63)c54)C(C)=[N+]2C1=C(c1c(C)cc(C)cc1C)c1c(C)c(I)c(C)n1[B-]2(F)F | > 218 |

Task: Tell me Photo Index (PI), ratio of dark IC50 to light IC50 of CC1=C(c2ccc3c4cccc5cccc(c6cccc2c63)c54)C(C)=[N+]2C1=C(c1c(C)cc(C)cc1C)c1c(C)cc(C)n1[B-]2(F)F when tested on MCF‐7 cells.
Output: > 109
